System: Bel-7402
assay-summary: Cytotoxic activity against human Bel7402 cells incubated for 48 hrs by MTT assay
Format: functional, cell-based
assay-setup: Bel-7402, 48 h
pIC50: −log10 of the molar value.
recorded-endpoint: pIC50

>>> df
                                   compound  numeric_readout
0  C=CCOC(=O)[C@]1(C)CC[C@]2(C)CC[C@]3(C)C4=CC=C5C(=CC(=O)C(O)=C5C)[C@]4(C)CC[C@@]3(C)[C@@H]2C1             6.20
1  CC1=C(O)C(=O)C=C2C1=CC=C1[C@@]2(C)CC[C@@]2(C)[C@@H]3C[C@](C)(C(=O)O)CC[C@]3(C)CC[C@]12C             6.36
2  CC1=C(O)C(=O)C=C2C1=CC=C1[C@@]2(C)CC[C@@]2(C)[C@@H]3C[C@](C)(C(=O)OCC(C)C)CC[C@]3(C)CC[C@]12C             6.28
